The values you see were collected from patent EP4371976B1.

Assay: Size distribution, polydispersity and Z-potential of LNPs by dynamic light scattering (Malvern Zetasizer)
Format: physicochemical
Conditions: LNPs, standard formulation 50:10:38.5:1.5; DLS
Experimental: The LNP solution was then adjusted to a final concentration of mRNA of 100 µg/ml. Size distribution, polydispersity and Z-potential were measured by dynamic light scattering (DLS) using Malvern Zetasizer Advance Lab Blue Label. RNA encapsulation was assessed by Quant-IT® Ribogreen following the manufacturer's instructions.
Particle size/ Ø (nm) overview

- compound: "CCCCCCCCCCC(CCCCCCCC)C(=O)NC(CCSCCC(=O)OCCCCCC)C(=O)NC1CCN(C)CC1 (stereo not drawn) [VC-LC-0566]"
  Particle size/ Ø (nm): 149.0
- compound: "CCCCCCCC#CCOC(=O)CCSCC(CC(=O)NC1CCN(C)CC1)C(=O)OCC(CCCCCC)CCCCCCCC (stereo not drawn) [VC-LC-0538]"
  Particle size/ Ø (nm): 153.4
- compound: "CCCCCCCCC(CCCCCC)COC(=O)C(CSCCC(=O)OCCCCCCCC(C)C)CC(=O)NC1CCN(C)CC1 (stereo not drawn) [VC-LC-0526]"
  Particle size/ Ø (nm): 124.7
- compound: "CCCCCCCC#CCOC(=O)CCSCCC(NC(=O)C(CCCCCC)CCCCCCCC)C(=O)NC1CCN(C)CC1 (stereo not drawn) [VC-LC-0429]"
  Particle size/ Ø (nm): 155.6
- compound: "CCCCCCCCC(CCCCCC)C(=O)NC(CCSCCC(=O)OCC(CC)CCCC)C(=O)NCCCN(CCO)CCO (stereo not drawn) [VC-LC-0197]"
  Particle size/ Ø (nm): 262.2
- compound: "CCCCCCCCCCCCOC(=O)CCSCCC(NC(=O)C(CCCCCC)CCCCCCCC)C(=O)NCCCn1ccnc1 (stereo not drawn) [VC-LC-0260]"
  Particle size/ Ø (nm): 161.7
- compound: "CCCCCCCC/C=C\\CCCCCCCC(=O)NC(CCSCCC(=O)OCCCCCCCCCCCC)C(=O)NC1CCN(C)CC1 (stereo not drawn) [VC-LC-0326]"
  Particle size/ Ø (nm): 181.9
- compound: "CCCCCCCCC(CCCCCC)COC(=O)CCSCCC(C(=O)NCCCN1CCOCC1)C(=O)OCC(CCCCCC)CCCCCCCC (stereo not drawn) [VC-LC-0606]"
  Particle size/ Ø (nm): 168.0
- compound: "CCCCCCCCC(CCCCCC)C(=O)NC(CCSCCC(=O)OCCCCCCCC(C)C)C(=O)NCCN(CC)CC (stereo not drawn) [VC-LC-0475]"
  Particle size/ Ø (nm): 135
- compound: "CCCCCCCCC(CCCCCC)C(=O)NC(CCSCCC(=O)OCCCCCCCC(C)C)C(=O)NCCCN1CCCC1 (stereo not drawn) [VC-LC-0243]"
  Particle size/ Ø (nm): 197.6
- compound: "CCCCCCCCCCCCCCCCCCOC(=O)CCSCC(CC(=O)NC1CCN(C)CC1)C(=O)OCC(CCCCCC)CCCCCCCC (stereo not drawn) [VC-LC-0530]"
  Particle size/ Ø (nm): 164
- compound: "CCCCCCCC/C=C\\CCCCCCCCOC(=O)CCSCCC(NC(=O)C(CCCCCC)CCCCCCCC)C(=O)NCCN(CC)CC (stereo not drawn) [VC-LC-0489]"
  Particle size/ Ø (nm): 143.8
- compound: "CCCCCCCCC(CCCCCC)C(=O)NC(CCSCCC(=O)OCC(CC)CCCC)C(=O)NCCCN1CCOCC1 (stereo not drawn) [VC-LC-0166]"
  Particle size/ Ø (nm): 164.8
- compound: "CCCCCCCCC(CCCCCC)C(=O)NC(CCSCCC(=O)OCCCCCCCC(C)C)C(=O)NCCN1CCN(C)CC1 (stereo not drawn) [VC-LC-0180]"
  Particle size/ Ø (nm): 197.5
- compound: "CCCCCCCCCCCCCOC(=O)CCSCCC(C(=O)NCCCN1CCOCC1)C(=O)OCC(CCCCCC)CCCCCCCC (stereo not drawn) [VC-LC-0605]"
  Particle size/ Ø (nm): 136.3
